Listed molecules paired with reported Hepatotoxicity (moderate)
# measurement.description: Highest frequency of moderate liver toxicity observed during clinical trials, expressed as a percentage. [column '% BIOL' in source]
# experimental.setup: human

{"molecule": "S=P(N1CC1)(N1CC1)N1CC1", "u": "%", "Hepatotoxicity (moderate)": 0}
{"molecule": "O=C(c1cc(O)c(O)c(O)c1)c1ccc(O)c(O)c1O", "u": "%", "Hepatotoxicity (moderate)": 0}
{"molecule": "Fc1ccc(C(c2ccc(F)cc2)N2CCN(C/C=C/c3ccccc3)CC2)cc1", "u": "%", "Hepatotoxicity (moderate)": 1.4}
{"molecule": "O=c1[nH]c(=O)n([C@@H]2O[C@H](CO)[C@@H](O)[C@@H]2O)cc1/C=C/Br", "u": "%", "Hepatotoxicity (moderate)": 2}
{"molecule": "CC(C)(C)NC(=O)[C@H]1CC[C@H]2[C@@H]3CC[C@H]4NC(=O)C=C[C@]4(C)[C@H]3CC[C@]12C [FINASTERIDE]", "u": "%", "Hepatotoxicity (moderate)": 9}
